# Tested on: A549
# PROTOCOL_TEXT: NCI tumour cell line growth inhibition, 48 h
The source made the active and inactive calls. No stated cut-off is given here; in the data, active = GI50 up to about 1.1 µM and inactive = higher.
Each entry below carries its reported GI50.

Solved entries:
COc1ccc2c(c1)c(Cc1c(C)n(C)c3ccc(OC)cc13)c(C)n2C    > 100 µM (inactive)
COc1ccc2nc(-c3ccc(OC(=O)N(C)C)cc3)cn2c1    > 100 µM (inactive)
O/N=N/c1ccccn1.OCC1OC2OC3C(CO)OC(OC4C(CO)OC(OC5C(CO)OC(OC6C(CO)OC(OC7C(CO)OC(OC1C(O)C2O)C(O)C7O)C(O)C6O)C(O)C5O)C(O)C4O)C(O)C3O (centres undefined)    > 100 µM (inactive)

INPUT: Quote GI50 reported for O=C(O)C[S+]([O-])c1ccc2c3c(cccc13)C(=O)c1ccccc1-2 (centres undefined) please.
OUTPUT: > 100 µM (inactive)

INPUT: Please report GI50 for the following molecule: C=C1CCCC(C)(C)C1CCC1(C)CCC(C(C)C(=O)OC)OO1 (centres undefined)
OUTPUT: 1.28 µM (inactive)

INPUT: Indicate the recorded GI50 value for this molecule: CC1C2(C)OC(=N)C(C#N)(C(c3cccc([N+](=O)[O-])c3)O2)C1(C#N)C#N (centres undefined)
OUTPUT: > 100 µM (inactive)

INPUT: Please give measured GI50 of the following entry: O=C(CC1Sc2ccccc2NC1=O)Nc1cccc(Cl)c1 (centres undefined)
OUTPUT: 43.8 µM (inactive)

###

# System: SK-MEL-5
# PROTOCOL_TEXT: NCI tumour cell line growth inhibition, 48 h
Active and inactive are the calls of the source. Rule as the data show it: active = GI50 up to about 1.1 µM and inactive = higher.
The categories you may choose from are active, inactive

INPUT: Write down the call the test reported for this compound. Item: CN(C)C(=O)OC1C(=O)N(C)c2ccc(Cl)cc2C2(c3ccccc3)N1C2(Cl)Cl (stereo not given)
OUTPUT: inactive

INPUT: What did this assay record as the result for CCOC(=O)N(CC)c1c(C(F)(F)F)cc(-c2ccccc2)[nH]c1=O ?
OUTPUT: inactive

INPUT: Which outcome was assigned to CN1C(=O)c2ccccc2NC(=O)C12O[C@@H]2c1ccccc1 (stereo not given in full) in this test?
OUTPUT: inactive

INPUT: Fill in: this test's call for CCOC(=O)N1CCC(N[C@@H]2c3cc4c(cc3[C@@H](c3cc(OC)c(O)c(OC)c3)[C@H]3C(=O)OC[C@@H]32)OCO4)CC1 is ___
OUTPUT: inactive

INPUT: Which outcome was entered for the compound Cc1ccc(-c2cc(-c3ccco3)nc(N)n2)o1 in this test?
OUTPUT: inactive

INPUT: Would you mind telling me which call this test gave CC1C2(C)OC(=N)C(C#N)(C(c3cccc([N+](=O)[O-])c3)O2)C1(C#N)C#N (stereo not given) ?
OUTPUT: inactive

INPUT: Returns: the outcome recorded for COc1cc2cc(C(=O)N3CC(CCl)c4ccc(NCCN)cc43)[nH]c2c(OC)c1OC (stereo not given) in this assay.
OUTPUT: active

INPUT: State the result this test recorded for C[C@@]12C[C@@H](c3ccccc3O1)N1CCCCSC1=N2 .
OUTPUT: inactive

INPUT: Just curious, what result did FC(F)(F)c1nc2cc(SSc3cc4nc(C(F)(F)F)[nH]c4cc3Cl)c(Cl)cc2[nH]1 get here?
OUTPUT: inactive

INPUT: So what was the verdict on COc1cccc2c1C1(O)C2CCCC12OCCCO2 (stereo not given) in this test?
OUTPUT: inactive

###

# Test system: NCI-H23
# PROTOCOL_TEXT: NCI tumour cell line growth inhibition, 48 h
Active and inactive are the calls of the source. Cut-off read from the data, not from the text of the source: active = GI50 up to about 1.1 µM and inactive = higher.
Response enum: YES = active, NO = inactive

Observe how each entry below is paired with its result.
N#CC1(C#N)C2C=CC(c3coc4cccc2c34)C1(C#N)C#N (stereo not given)    NO
CN(C)C(=O)OC1C(=O)N(C)c2ccc(Cl)cc2C2(c3ccccc3)N1C2(Cl)Cl (stereo not given)    NO
OC(c1ccccc1)(c1ccccc1)c1ccccn1    NO
CCCOC(=O)C1C2CCC(O2)C1C(=O)O (stereo not given)    NO
CC[C@@]1(O)C(=O)OCc2c1cc1n(c2=O)Cc2c-1nc1ccccc1c2/C=N\NC(=O)C(N)Cc1ccc(O)cc1 (stereo not given in full)    YES
O=C(O)C1CC(C2CCCCN2)CN2CCCCC12 (stereo not given)    NO
CCn1c2ccccc2c2cc(NC(=O)c3c(C)[nH]c(=O)[nH]c3=S)ccc21    NO
CCOC(=O)c1cc2c3c(c(O)c(OC)c2s1)N(C(=O)c1cc2c4c(c(O)c(OC)c2s1)N(C(C)=O)CC4)CC3    NO

INPUT: Status in this test for CC(C)CC(NC=O)C(=O)NC(Cc1ccccc1)NC(=O)CNC(=O)C(C)NC(=O)OC(C)(C)C (stereo not given) ?
OUTPUT: NO

INPUT: Outcome logged for CC1CC(Br)C(=O)O1 (stereo not given) in this assay:
OUTPUT: NO

INPUT: Given O=S(=O)(Nc1ccccc1S(=O)(=O)c1ccccc1)c1ccccc1 , state the outcome it received in this test.
OUTPUT: NO

INPUT: For this molecule, state the assay outcome: c1ccc2c(-c3cnc(-c4c[nH]c5ccccc45)cn3)c[nH]c2c1
OUTPUT: NO

INPUT: Which outcome was entered for the molecule O=c1[nH]c(N/N=C\C(=N/Nc2nc3ccccc3c(=O)[nH]2)C(O)C(O)C(O)CO)nc2ccccc12 (stereo not given) in this test?
OUTPUT: NO

INPUT: Recorded call for CCOC(=O)CCSS(=O)(=O)c1ccccc1 ?
OUTPUT: NO

INPUT: Per the records of this test, what outcome belongs to COc1ccc(-c2nc(SCC(=O)N/N=C/c3ccc([N+](=O)[O-])cc3)[nH]c2-c2ccc(OC)cc2)cc1 ?
OUTPUT: NO

INPUT: Any idea what this test logged for COC(=O)CCC(=O)Nc1cccc(C(F)(F)F)c1 ?
OUTPUT: NO

INPUT: I'd appreciate the recorded outcome for COc1cccc(NC(=O)CC(=O)NNCC(=O)Nc2nnc(-c3ccc(N(CCC#N)S(=O)(=O)c4ccccc4)cc3)s2)c1 from this test.
OUTPUT: NO

###

# System: SK-MEL-2
# PROTOCOL_TEXT: NCI tumour cell line growth inhibition, 48 h
Calls of active or inactive are those of the source. Rule as the data show it: active = GI50 up to about 1.1 µM and inactive = higher. Where a SMILES comes first, the peptide text is derived from it. [ ]: non-standard residue; d: D form. The star is where a group is joined. Octanoyl = CCCCCCCC(=O)*; Aib = CC(C)(N)C(=O)O; tBu = CC(C)(C)*
Your reply should match one of these outcome classes. class 1 (active), class 0 (inactive)

Some solved cases for reference:
COc1ccc(CC(COS(=O)(=O)c2ccc(C)cc2)NS(=O)(=O)c2ccc(C)cc2)cc1 (centres undefined)    class 0
COc1ccc(CN(CCN(C)C)c2ccccn2)cc1.Cn1c(=O)c2[nH]c(Br)nc2n(C)c1=O    class 0
CCCCCCCC(=O)NC(C)(C)C(=O)NC(COC(C)(C)C)C(=O)NC(CC(C)C)C(=O)NC(C)(C)C(=O)NC(COC(C)(C)C)C(=O)NC(COC(C)(C)C)C(=O)NC(CC(C)C)C(=O)NC(C)(C)C(=O)NC(COC(C)(C)C)C(=O)NC(C(=O)NC(CC(C)C)C(=O)OC)C(C)CC (centres undefined) (Octanoyl-[Aib]S(tBu)L[Aib]S(tBu)S(tBu)L[Aib]S(tBu)IL-OMe; configuration not given here)    class 0
O=C1CS(=O)(=O)C(c2cccc(Oc3ccccc3)c2)N1c1ccc(Cl)cc1 (centres undefined)    class 0
CN1CCN([C@H]2C[C@H]3[C@@H]4CC=C5C[C@@H](O)CC[C@]5(C)[C@H]4CC[C@]3(C)C2=O)CC1    class 0

INPUT: Outcome? CCCCC(C(=O)C(=O)Nc1ccccc1CC)C(=O)C(C)C (centres undefined)
OUTPUT: class 0

INPUT: Record request — test call for CC(=O)O[C@H]1CC2C(C3CC[C@H](C(C)CCC(N)=O)[C@]31C)[C@H](OC(C)=O)C[C@@H]1CC3(CC[C@]21C)OOC1(CCC(C)CC1)OO3 (some centres undefined)
OUTPUT: class 0

INPUT: Just curious, what result did CC1=NN(C(=O)c2ccc([N+](=O)[O-])cc2)C(=O)C1/N=N/c1ccccc1C(=O)O (centres undefined) get here?
OUTPUT: class 0

INPUT: Given O=C1C=C2CC[C@H]3[C@@H]4CC[C@H](Oc5c6ccccc6nc6ccccc56)[C@H]4CC[C@@H]3[C@H]2CC1 , state the outcome it received in this test.
OUTPUT: class 0

INPUT: What is the recorded call for this compound in the test? CN(C)CCNC(=O)c1cccc2nc3c(nc12)-c1ccccc1C3=O
OUTPUT: class 0

###

# Tested on: OVCAR-5
# PROTOCOL_TEXT: NCI tumour cell line growth inhibition, 48 h
Activity calls are given as the source filed them. Cut-off read from the data, not from the text of the source: active = GI50 up to about 1.1 µM and inactive = higher.
Entries and their GI50 values follow.

These recorded examples may help you get a feel for the data.
Cc1c(C(=O)/C=C/C=C/c2ccccc2)[n+]([O-])c2ccccc2[n+]1[O-]    66.1 µM (inactive)
O=c1/c(=C/c2ccc(-c3ccc(Cl)cc3Cl)o2)sc2n1[C@@H](c1ccc(Cl)cc1)C=C(c1cc(F)c(Cl)cc1Cl)N=2    > 100 µM (inactive)
COCCN(C(=O)c1ccccc1)C1CCC2(SCCS2)c2[nH]c3ccccc3c21 (centres undefined)    > 100 µM (inactive)
O=C(O/N=C1/CCC/C1=C\c1ccccc1)c1ccc(Cl)cc1    > 100 µM (inactive)
FC(F)(F)c1nc2cc(SSc3cc4nc(C(F)(F)F)[nH]c4cc3Cl)c(Cl)cc2[nH]1    > 100 µM (inactive)
COc1cc(/C=C/C(=O)c2sc(-n3nc(-c4ccccc4)cc3-c3ccccc3)nc2C)ccc1O    > 100 µM (inactive)

INPUT: Provide GI50 value for the following compound: COc1cc2c(cc1OC)-c1cc3ccccc3c(=O)n1CCC2
OUTPUT: 45.7 µM (inactive)

INPUT: Answer with the recorded GI50 for the compound listed here: Cc1nc(-n2nc(-c3ccccc3)cc2-c2ccccc2)sc1C(/C=C/c1ccc([N+](=O)[O-])cc1)=N/NC(N)=S
OUTPUT: 83.6 µM (inactive)

INPUT: Check the records and state GI50 for O=C1C=C2CC[C@H]3[C@@H]4CC[C@H](Oc5c6ccccc6nc6ccccc56)[C@H]4CC[C@@H]3[C@H]2CC1
OUTPUT: > 100 µM (inactive)

INPUT: In one line, give reported GI50 of the entry COc1ccc(CC(COS(=O)(=O)c2ccc(C)cc2)NS(=O)(=O)c2ccc(C)cc2)cc1 (centres undefined) .
OUTPUT: 17.5 µM (inactive)

INPUT: Find the measured GI50 of O/N=N/c1ccccn1.OCC1OC2OC3C(CO)OC(OC4C(CO)OC(OC5C(CO)OC(OC6C(CO)OC(OC7C(CO)OC(OC1C(O)C2O)C(O)C7O)C(O)C6O)C(O)C5O)C(O)C4O)C(O)C3O (centres undefined) and report it.
OUTPUT: > 100 µM (inactive)

INPUT: Quickly give me recorded GI50 for Cn1c(=O)cc2[nH]c3ccccc3n2c1=O
OUTPUT: > 100 µM (inactive)

INPUT: Indicate the recorded GI50 value for this compound: CC(C)(C)C1=CC(=C(P(=O)(O)O)P(=O)(O)O)C=C(C(C)(C)C)C1=O
OUTPUT: > 50 µM (inactive)

INPUT: Look up and state reported GI50 for CCCC(=O)OC[n+]1ccc(-c2c(COC(=O)NC(C)C)c(COC(=O)NC(C)C)c3n2CCC3)cc1
OUTPUT: > 100 µM (inactive)

INPUT: Could you please provide reported GI50 for CN1c2ccccc2NC(CC(=O)O)C2CC=CN21 (centres undefined) ? Thanks!
OUTPUT: > 100 µM (inactive)

INPUT: Return reported GI50. Input compound: COc1ccc(/C=C2\NC(=S)N(CN3CCCCC3)C2=O)cc1
OUTPUT: > 100 µM (inactive)

INPUT: Report GI50, nothing else, for this compound: N#Cc1c(N)nc(SCc2ccccc2)c(C#N)c1-c1ccc(O)cc1
OUTPUT: 16.4 µM (inactive)

INPUT: Look up GI50 of CC(=O)c1cccn1/C=C(\OC(=O)OC(C)(C)C)c1ccc[nH]1 and report it.
OUTPUT: 51.2 µM (inactive)

INPUT: Write down GI50 measured for item O=c1nc(-c2ccccc2)c2c3c(cccn13)CCC2
OUTPUT: > 100 µM (inactive)
